# ASSAY_SYSTEM: T1, human PVRIG on Jurkat-hPVRIG cells (human, UniProt Q6DKI7 41-326)
# T1 construct: whole, on cells; also called PVRIG on cell surface; effector cells stably expressing PVRIG
# T1 sequence (looked up): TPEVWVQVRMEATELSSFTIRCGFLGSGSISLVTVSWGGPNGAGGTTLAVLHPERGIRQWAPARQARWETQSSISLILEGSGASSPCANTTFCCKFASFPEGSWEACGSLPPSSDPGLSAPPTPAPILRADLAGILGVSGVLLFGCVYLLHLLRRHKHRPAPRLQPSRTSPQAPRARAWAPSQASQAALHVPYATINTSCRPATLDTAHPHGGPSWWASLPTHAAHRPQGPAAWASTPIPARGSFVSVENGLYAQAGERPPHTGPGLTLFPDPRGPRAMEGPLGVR
# EXPERIMENT_NOTES: flow cytometry on Jurkat-hPVRIG cells
Each record here notes measured pEC50.
// returns pEC50 (minus log10 of molar concentration), number only

BINDER: Hab1B10E8.6 (antibody, V domains shown, Humanized antibody; also called Hab1B10E8-VH.1b + Hab1B10E8-VL.1b) VH: QVQLVQSGAEVKKPGASVKVSCKASGYSFPSYWMHWVRQAPGQGLEWIGEINPSNGLTNYNEQFRNRVTMTVDTSTSTVYMELSSLRSEDTAVYYCARHHGSTYYALDSWGQGTLVTVSS VL: DIVMTQSPDSLAVSLGERATINCKSSQSLLNSINQKNFLAWYQQKPGQPPKLLVYFASTRESGVPDRFSGSGSGTDFTLTISSLQAEDVAVYFCQQHYSTPPTFGGGTKLEIK
pEC50: 10.30

Need pEC50, item Hab21F10C10.12 (antibody, V domains shown, Humanized antibody; also called Hab21F10C10-VH.1d + Hab21F10C10-VL.1c) VH: QVQLVQSGAEVKKPGASVKVSCKASGYTFINNFIEWVRQAPGQGLEWMGVINPGSGDANYAQKFQGRVTMTRDTSISTAYMELSRLRSDDTAVYYCASHWLAYWGQGTTVTVSS VL: EIVMTQSPPTLSLSPGERVTLSCRSSQSLLSSGNQKNYLSWYQQKPGQAPRLLIYGASTRETGIPARFSGSGSGTDFTLTISSLQPEDFAVYYCQNGHFYPYTFGGGTKLEIK
10.26

Need pEC50, item Hab43F7C9.12 (antibody, V domains shown, Humanized antibody; also called Hab43F7C9-VH.1d + Hab43F7C9-VL.1c; 43H7C9.12) VH: QVQLQESGPGLVKPSETLSLTCTVSGYSISSDYAWNWIRQPPGKGLEWIGYIRYNGNTNYNPSLKSRVTISVDTSKNQFSLKLSSVTAADTAVYYCAIIYYDYDGFVYWGQGTTVTVSS VL: DIQMTQSPSSLSASVGDRVTITCRASQNVYENLHWYQQKPGKAPKLLIKFASDSISGVPSRFSGSGSGTDFTLTISSLQPEDFATYYCLQLYSTPYTFGGGTKLEIK
10.75

Need pEC50, item SRF813-IgG1 (antibody, V domains shown) VH: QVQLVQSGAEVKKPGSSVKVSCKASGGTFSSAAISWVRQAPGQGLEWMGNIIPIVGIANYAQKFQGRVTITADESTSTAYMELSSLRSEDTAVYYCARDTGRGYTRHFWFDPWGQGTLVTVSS VL: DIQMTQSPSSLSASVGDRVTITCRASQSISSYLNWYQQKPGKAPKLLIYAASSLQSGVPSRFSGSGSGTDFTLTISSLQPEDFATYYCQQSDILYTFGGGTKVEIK
10.30

Reference source for all entries: patent US20260116967A1
